- Tested On: GABA-A receptor; anion channel
- Test Name: Displacement of [3H]gamma-amino butyric acid from Gamma-aminobutyric acid (GABA-A) receptor of human cerebellar cortex preparation
Readout: Ki

Worked set:
Compound: NC(=O)CCC/N=C(\c1ccc(Cl)cc1)c1cc(F)ccc1O [PROGABIDE]
Tested On: GABA-A receptor; anion channel
Ki: 40000 nM
//
Compound: NCc1cc(=O)[nH]o1
Tested On: GABA-A receptor; anion channel
Ki: 11 nM
//
Compound: CCCC(CCC)C(=O)[O-].[Na+] [VALPROATE SODIUM]
Tested On: GABA-A receptor; anion channel
Ki: > 100000 nM

Q: Quote Ki reported for O=C([O-])CCC/N=C(\c1ccc(Cl)cc1)c1cc(F)ccc1O.[Na+] please.
A: 680 nM
